Where these numbers come from: PubChem BioAssay

Molecular target: Protein kinase 7 (PK7), Plasmodium falciparum 3D7 (PF3D7_0213400)
Assay: inhibition of Plasmodium PK7 catalytic activity – biochemical, TCAMS antimalarial set, Kinase-Glo luminescence (AID 1159587)
Details: recombinant PfPK7, Kinase-Glo ATP depletion luminescence
Activity calls are given as the source filed them. The rule behind the calls is not given here.
property-label: outcome

> print(dat)
                                    compound  observed
 1  O=C(c1ccc(-c2ccc(-c3nc4ccc(C(F)(F)F)cc4[nH]3)s2)cc1)N1CCCCC1CN1CCC(O)C1 (stereo not given)  inactive
 2  CCc1c(CCNCCCC(C)CCNCCc2ccc(OC)c(OC)c2CC)ccc(OC)c1OC (stereo not given)  inactive
 3   CSc1sc(NC(=O)Nc2cccc(C(F)(F)F)c2)cc1C#N  inactive
 4  Cc1ccccc1N1CCN(c2ccc(C(=O)Nc3ccccc3)cn2)CC1  inactive
 5          COc1ccc(Oc2cnc(N)nc2N)c(C(C)C)c1  inactive
 6  Nc1c(Cl)cc(C(O)CNCCCCCOCCc2ccc3occc3c2)cc1Cl (stereo not given)  inactive
 7  Cc1nn(-c2ccc(Cl)cc2)c2[nH]c(CN3CCN(c4cccc(Cl)c4)CC3)cc(=O)c12  inactive
 8  CCn1c(Cc2ccccc2)nnc1SCC(=O)N1c2ccccc2Sc2ccccc21  inactive
 9    Cc1cc(Nc2ccc(C(C)(C)C)cc2)c2[nH]ncc2n1  inactive
10       CC1(C)N=C(N)N=C(N)N1OCCCOc1ccccc1Cl  inactive
11  CC(C)(C)c1ccc(CN2CCC(NC(=O)c3ccc(-c4cccc(C(F)(F)F)c4)s3)CC2)cc1  inactive
12  COc1ccc(CN2CCC(NCc3cccc([N+](=O)[O-])c3)CC2)cc1  inactive
13  N#Cc1ccc(-c2ccc(C(=O)NCCCCN3CCC(c4nc5ccccc5[nH]4)CC3)cc2)cc1  inactive
14  CCCCNCc1ccc(-c2nc(CN(Cc3ccc(Cl)c(Cl)c3)S(=O)(=O)c3ccc(NC(C)=O)cc3)cs2)cc1  inactive
15  CCCCCCNC[C@@H](O)[C@H](Cc1ccccc1)NC(=O)c1cc(NCC)cc(N2CCCCS2(=O)=O)c1  inactive
16      CCSc1ccc(C)cc1CON1C(N)=NC(N)=NC1(C)C  inactive
17  COc1ccc(-c2nc3c(N)nc(N)nc3nc2-c2ccccc2Cl)cc1 (tested in a mixture with another compound)  inactive
18  CC(C#N)Cc1ccc(-c2cnc(N)c3cc(-c4ccnc(N)n4)ccc23)cc1 (stereo not given)  inactive
19  O=C(NCCNc1ccnc(Nc2ccc(F)cc2)n1)Nc1ccc2c(c1)OCO2  inactive
20  CCCC(C)N(Cc1ccc(C(C)(C)C)cc1)C(=O)c1ccc(OC)cc1 (stereo not given)  inactive
